Test system: HPK1;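 further: KINOMEscan kinase panel screen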
condition.description: concentration: 1 μM,replicates: in singlicate; n = 1
readout.name: %Inh (%)

>  <molecule>
CC(C)c1nc(-c2cccc(NS(=O)(=O)c3ccccc3)c2)c(-c2ccnc(Nc3ccc4c(c3)CN(C)CC4)n2)s1 [GSK1649598]

>  <observed>
88

$$$$
>  <molecule>
Cn1ccc2ncnc(Oc3ccc(NC(=O)Nc4cccc(C(F)(F)F)c4)c(Cl)c3)c21

>  <observed>
39

$$$$
>  <molecule>
Cc1n[nH]c2cc(Nc3ccnc(Nc4cccc(CN5CCOCC5)c4)n3)ccc12 [GW682569]

>  <observed>
24

$$$$
>  <molecule>
Cl.c1ccc(Oc2ccc(Nc3ccnc4cc(-c5ccc(CN6CCNCC6)o5)ccc34)cc2)nc1 [GW567142]

>  <observed>
0

$$$$
>  <molecule>
Cc1ccc(C(=O)Nc2ccc(Oc3ccc4nc(NC(=O)C5CC5)cn4c3)c(F)c2)c(=O)n1-c1ccccc1

>  <observed>
56

$$$$
>  <molecule>
NC(=O)c1ccc(-c2cc3ncnc(SCC(=O)O)c3s2)cc1

>  <observed>
2

$$$$
>  <molecule>
Nc1nccc(-c2ccc3c(N)n[nH]c3c2)n1 [GSK1034945]

>  <observed>
52

$$$$
>  <molecule>
COc1cccc(OC)c1C(=O)Nc1cccc(-c2nn3ccccc3c2-c2ccnc(Nc3cccc(F)c3)n2)c1 [GSK361065]

>  <observed>
2

$$$$
>  <molecule>
CC(C)S(=O)(=O)N1CCN(Cc2ccc3c(c2)nc(NC(=O)c2ccsc2)n3C[C@H](O)c2ccccc2)CC1 [GW635815]

>  <observed>
39

$$$$
